Target: Human IDO (Homo sapiens)
Construct: High control is Hela cells with IFNγ treatment; endogenous in cells
Assay: HeLa cell IDO assay (IFNγ-treated cells, N-formylkynurenine by RapidFire/MS/MS)
Conditions: 25 ng/ml IFNγ, 200 μM Trp, 48 hours, class symbol
pIC50: −log10 of the molar value.
propertyName: pIC50

INSERT INTO assay_data (compound, result) VALUES
  ('O=C(Nc1ccc(Br)cc1)[C@H]1C[C@]12CC[C@H](c1ccnc3ccc(F)cc31)CC2 (single isomer, unassigned)', '> 7.00');

Can you share its pIC50? I mean this compound: O=C(Nc1ccc(Cl)cc1)C1CC12CCN(c1ccnc3ccc(F)cc13)CC2 (single isomer, unassigned) [Compound 12-6] > 7.00

Look at this compound and give its reported pIC50. N#Cc1ccc(NC(=O)[C@H]2C[C@]23CC[C@H](c2ccnc4ccc(F)cc42)CC3)cc1 (single isomer, unassigned) > 7.00

====

Molecular target: Human IDO (Homo sapiens, UniProt P14902)
Construct: High control is Hela cells with IFNγ treatment; endogenous in cells
Sequence (P14902 whole entry): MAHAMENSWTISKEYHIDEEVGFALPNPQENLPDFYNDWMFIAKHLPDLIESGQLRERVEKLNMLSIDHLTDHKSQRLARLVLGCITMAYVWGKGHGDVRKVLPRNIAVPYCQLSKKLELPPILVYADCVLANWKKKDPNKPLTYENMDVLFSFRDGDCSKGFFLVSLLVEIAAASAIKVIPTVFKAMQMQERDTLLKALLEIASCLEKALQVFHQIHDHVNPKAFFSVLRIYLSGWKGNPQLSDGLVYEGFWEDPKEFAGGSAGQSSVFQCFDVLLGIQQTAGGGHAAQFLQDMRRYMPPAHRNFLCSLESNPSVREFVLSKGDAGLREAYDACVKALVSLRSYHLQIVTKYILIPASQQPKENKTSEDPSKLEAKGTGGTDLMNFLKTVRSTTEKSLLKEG
Assay: HeLa cell IDO assay (IFNγ-treated cells, N-formylkynurenine by RapidFire/MS/MS)
Conditions: 25 ng/ml IFNγ, 200 μM Trp, 48 hours, class symbol
Quick reference for IC50 among some compounds

Example compounds with recorded IC50:
INSERT INTO assay_data (compound, result) VALUES
  ('O=C(Nc1ccc(Cl)cc1)C1CC2(CCC(c3ccnc4ccncc34)CC2)C1 (single isomer, unassigned) [Compound 20-8]', '< 100 nM'),
  ('O=C(NC1CC2(CCN(c3ccnc4ccncc34)CC2)C1)c1ccc(Cl)cc1 [Compound 22-5]', '> 1000 nM'),
  ('O=C(NC1CC12CCC(c1ccnc3ccc(F)cc13)CC2)c1ccc(Cl)cc1 (single isomer, unassigned) [Compound 9-4]', '< 100 nM'),
  ('O=C(Nc1ccc(Cl)cc1)C1(C2CCC(c3ccnc4ccncc34)CC2)CC1 (mixture of isomers) [Compound 29-6]', '< 100 nM'),
  ('O=C(NN1CCCCC1)[C@H]1C[C@]12CC[C@H](c1ccnc3ccc(F)cc31)CC2 [Compound 1-18]', '> 1000 nM');

Consider now this further compound.
What value of measured IC50 is listed for O=C(NC1CC2(CCN(c3ccnc4ccc(F)cc34)CC2)C1)c1ccc(Cl)cc1 [Compound 18-5] ? < 100 nM

====

Target: Human IDO (Homo sapiens)
Construct: High control is Hela cells with IFNγ treatment; endogenous in cells; host or cells: HeLa cells treated with 25 ng/ml IFNγ
Assay: HeLa cell IDO assay (IFNγ-treated cells, N-formylkynurenine by RapidFire/MS/MS)
Format: cell-based
Details: 25 ng/ml IFNγ, 200 μM Trp, 48 hours, class symbol
Parameter: IC50. Scope: all listed entries.

Example results:
INSERT INTO assay_data (compound, targetofassay, result) VALUES
  ('CC1(C(=O)Nc2ccc(Cl)cc2)CC12CCC(c1ccnc3ccc(F)cc13)CC2 (single isomer, unassigned) [Compound 11-6]', 'Human IDO (Homo sapiens)', '< 100 nM'),
  ('O=C(Nc1ccccc1Cl)[C@H]1C[C@]12CC[C@H](c1ccnc3ccc(F)cc31)CC2', 'Human IDO (Homo sapiens)', '> 1000 nM');

// next entry
Param item = `O=C(Nc1ccc(Cl)cc1)C1(C2CCN(c3ccnc4ccc(F)cc34)CC2)CC1` ; retrieve measured IC50. < 100 nM

====

Examples of compounds with documented IC50 follow.
Target: Human IDO (Homo sapiens, UniProt P14902)
Construct: High control is Hela cells with IFNγ treatment; endogenous in cells
Experiment: HeLa cell IDO assay (IFNγ-treated cells, N-formylkynurenine by RapidFire/MS/MS)
Conditions: 25 ng/ml IFNγ, 200 μM Trp, 48 hours, class symbol

Examples with their reported IC50 follow.
INSERT INTO measurements (compound, targetofassay, propertyname, result) VALUES
  ('O=C([C@H]1C[C@]12CC[C@H](c1ccnc3ccc(F)cc31)CC2)N1CCC(C(F)(F)F)CC1', 'Human IDO (Homo sapiens, UniProt P14902)', 'IC50', '> 1000 nM'),
  ('O=C(Nc1ccc(Br)cc1F)[C@H]1C[C@]12CC[C@H](c1ccnc3ccc(F)cc31)CC2 (single isomer, unassigned)', 'Human IDO (Homo sapiens, UniProt P14902)', 'IC50', '< 100 nM'),
  ('O=C(Nc1ccc(Cl)cc1F)[C@H]1C[C@]12CC[C@H](c1ccnc3ccc(F)cc31)CC2 [Compound 2-5]', 'Human IDO (Homo sapiens, UniProt P14902)', 'IC50', '< 100 nM'),
  ('O=C(Nc1cccc(Cl)c1)[C@H]1C[C@]12CC[C@H](c1ccnc3ccc(F)cc31)CC2', 'Human IDO (Homo sapiens, UniProt P14902)', 'IC50', '100 to 1000 nM'),
  ('O=C(Nc1ccc(Cl)cn1)[C@H]1C[C@]12CC[C@H](c1ccnc3ccc(F)cc31)CC2', 'Human IDO (Homo sapiens, UniProt P14902)', 'IC50', '100 to 1000 nM');

Now let's try a different one.
I have this compound here, O=C(Nc1ccc(Cl)cc1)C1CC12CCC(c1ccnc3ccncc13)CC2 (single isomer, unassigned) [Compound 7-7] , and I need its recorded IC50. > 1000 nM

====

Target: Human IDO (Homo sapiens, UniProt P14902)
Construct: High control is Hela cells with IFNγ treatment; endogenous in cells
Assay: HeLa cell IDO assay (IFNγ-treated cells, N-formylkynurenine by RapidFire/MS/MS)
Settings: 25 ng/ml IFNγ, 200 μM Trp, 48 hours, class symbol
propertyName: IC50

See these solved cases before continuing.
INSERT INTO assay_data (compound, propertyname, result) VALUES
  ('O=C(Nc1ccc(Cl)cc1)C1([C@H]2CC[C@@H](c3ccnc4ccc(F)cc43)CC2)CC1', 'IC50', '< 100 nM'),
  ('O=C(N[C@H]1CC2(CC[C@H](c3ccnc4ccc(F)cc43)CC2)C1)c1ccncc1 (stereo partly shown)', 'IC50', '100 to 1000 nM'),
  ('O=C(Nc1ccc(I)cc1)[C@H]1C[C@]12CC[C@H](c1ccnc3ccc(F)cc31)CC2 (single isomer, unassigned)', 'IC50', '< 100 nM');

Checklist item: IC50 tested on Human IDO (Homo sapiens, UniProt P14902), entry `O=C(Nc1ccccc1F)[C@H]1C[C@]12CC[C@H](c1ccnc3ccc(F)cc31)CC2` , value? 100 to 1000 nM

What IC50 appears in the records for this compound with Human IDO (Homo sapiens, UniProt P14902)? O=C(NC1CC2(CCC(c3ccnc4ccc(F)cc34)CC2)C1)c1ccc(Cl)cc1 (single isomer, unassigned) [Compound 17-7] 100 to 1000 nM

Enter reported IC50 observed with Human IDO (Homo sapiens, UniProt P14902) for `COc1ccc2nccc([C@H]3CC[C@@]4(CC3)C[C@@H]4C(=O)Nc3ccc(Cl)cc3)c2c1` 100 to 1000 nM

Quick check: IC50 on Human IDO (Homo sapiens, UniProt P14902), item O=C(Nc1ccc(Cl)cc1)C1(F)CC12CCC(c1ccnc3ccc(F)cc13)CC2 (stereo not shown) ? 100 to 1000 nM

Request body: readout IC50, system Human IDO (Homo sapiens, UniProt P14902), query `O=C(Nc1ccc(Cl)cc1)C1([C@H]2CC[C@H](c3ccnc4ccc(F)cc43)CC2)CC1` . Return the value. < 100 nM

====

We begin with a simple list: items and their reported IC50.
Target: Human IDO (Homo sapiens)
Construct: High control is Hela cells with IFNγ treatment; endogenous in cells; host or cells: HeLa cells treated with 25 ng/ml IFNγ
Experiment: HeLa cell IDO assay (IFNγ-treated cells, N-formylkynurenine by RapidFire/MS/MS)
Assay type: cell-based
Conditions: 25 ng/ml IFNγ, 200 μM Trp, 48 hours, class symbol

Some solved entries appear below for comparison.
INSERT INTO assay_data (compound, targetofassay, propertyname, result) VALUES
  ('O=C(Nc1ccc(Cl)cc1)C1CC2(CCN(c3ccnc4ccc(F)cc34)CC2)C1 [Compound 19-3]', 'Human IDO (Homo sapiens)', 'IC50', '100 to 1000 nM'),
  ('O=C(NC1(C2CCC(c3ccnc4ccc(F)cc34)CC2)CC1)c1ccc(Cl)cc1 (centres unmarked) [Compound 23-5A]', 'Human IDO (Homo sapiens)', 'IC50', '< 100 nM'),
  ('O=C(Nc1ccc(C(F)(F)F)cn1)[C@H]1C[C@]12CC[C@H](c1ccnc3ccc(F)cc31)CC2 (stereo in doubt) [Compound 3-2]', 'Human IDO (Homo sapiens)', 'IC50', '> 1000 nM'),
  ('O=C(Nc1ccc(Cl)cc1)[C@H]1C[C@]12CC[C@H](c1ccnc3ccc(Cl)cc31)CC2 [Compound 8-4A]', 'Human IDO (Homo sapiens)', 'IC50', '< 100 nM'),
  ('O=C(Nc1ccc(C(F)(F)F)cc1)[C@H]1C[C@]12CC[C@H](c1ccnc3ccc(F)cc31)CC2 [Compound 2-4]', 'Human IDO (Homo sapiens)', 'IC50', '100 to 1000 nM'),
  ('O=C(Nc1ccc(Cl)cc1)C1CC12CCN(c1ccnc3ccc(F)cc13)CC2 (single isomer, unassigned) [Compound 12-7]', 'Human IDO (Homo sapiens)', 'IC50', '> 1000 nM'),
  ('O=C(Nc1ccc(Cl)cc1)C1CC12CCC(c1ccnc3ccc(F)cc13)CC2 (centres unmarked) [Compound 1-9]', 'Human IDO (Homo sapiens)', 'IC50', '< 100 nM');

Need IC50, item N#Cc1ccc(C(=O)N[C@H]2CC3(CC[C@H](c4ccnc5ccc(F)cc54)CC3)C2)cc1 (some centres unmarked) [Compound 17-8] < 100 nM
